From: PubChem BioAssay AID588478

Below, each of the compounds is paired with its reported inhibition value.
target: Ubiquitin carboxyl-terminal hydrolase isozyme L5 (Homo sapiens) (UniProt Q9Y5K5); test: inhibitors of human UCH37 deubiquitinase, primary screen, biochemical, Ub-AMC cleavage, fluorescence (AID 588478); conditions: purified proteasome/UCH37, Ub-AMC cleavage fluorescence; active compounds read high; concentration not given here;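 also: 0% = compound-free wells with enzyme and 100% = wells lacking proteasome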
Sequence (Q9Y5K5 whole entry, looked up): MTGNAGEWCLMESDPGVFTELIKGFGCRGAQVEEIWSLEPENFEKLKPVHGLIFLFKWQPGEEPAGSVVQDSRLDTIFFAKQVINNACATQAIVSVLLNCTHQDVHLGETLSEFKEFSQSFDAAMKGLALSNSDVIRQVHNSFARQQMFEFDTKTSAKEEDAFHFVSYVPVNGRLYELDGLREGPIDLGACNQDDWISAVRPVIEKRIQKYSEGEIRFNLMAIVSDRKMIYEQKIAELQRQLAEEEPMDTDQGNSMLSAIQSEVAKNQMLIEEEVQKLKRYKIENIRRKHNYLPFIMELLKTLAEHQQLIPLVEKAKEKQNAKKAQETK
In all, about 330,000 compounds went through this assay and about 1,100 (0.33%) were called active. For the sample, actives were picked, then their nearest neighbours and some compounds at random.
// return numeric value only (unit: %, not printed)

Field: example entries. Status: answers known.
> print(dat)
                                   compound  measurement.kind  uom  value.measured
1  CCCCCCCNC(=O)C1(CC2CC(c3cccc(Br)c3)=NO2)CCN(C(=O)c2cc(OCC)c(OCC)c(OCC)c2)CC1 (stereo unspecified)        inhibition    %            3.99
2                  Cc1cnc(NC(=O)c2ccccn2)s1        inhibition    %            2.76
3       O=C(NN=C/C(Br)=C/c1ccccc1)NC1CCCCC1        inhibition    %            4.04
4  O=C(c1ccccc1)N1CCC(CC2CC(c3ccc(Cl)cc3)=NO2)(C(=O)NCC2CCCCC2)CC1 (stereo unspecified)        inhibition    %            22.5
5  Cc1ccc(N2C(=O)CC(Sc3ncn[nH]3)C2=O)cc1 (stereo unspecified)        inhibition    %            5.88

Item CCOC(=O)N1CCN(C(=O)C(C)NC(=O)c2ccco2)CC1 (stereo unspecified) has what recorded inhibition? 1.14

Item Cc1nnsc1C(=O)NN=Cc1ccccc1Cl has what recorded inhibition? 2.87

Item CC(=NNC(=O)c1cccs1)c1ccc(NC(=O)COc2ccc(Cl)cc2)cc1 has what recorded inhibition? -42

Item C(=NNc1nc(N2CCOCC2)nc(N2CCOCC2)n1)c1cccnc1 has what recorded inhibition? 2.78

Item CC(C)(C)NN=Cc1cc(Cl)cc([N+](=O)[O-])c1O has what recorded inhibition? 6.29

Item CCOC(=O)N1CCN(C(=O)CNC(=O)Cc2ccc(Cl)cc2)CC1 has what recorded inhibition? 33.3

---

target: Ubiquitin carboxyl-terminal hydrolase isozyme L5 (Homo sapiens); assay: inhibitors of human UCH37 deubiquitinase, primary screen, biochemical, Ub-AMC cleavage, fluorescence (AID 588478); details: purified proteasome/UCH37, Ub-AMC cleavage fluorescence; concentration not given here;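 also: 0% = compound-free wells with enzyme and 100% = wells lacking proteasome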
The campaign covered roughly 330,000 compounds. About 1,100 (0.33%) were called active.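 How the source made its calls: active means mean inhibition over replicate wells above about 20% (limit read from the data); inactive means the rest.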 For the sample, actives were picked, then their nearest neighbours and some compounds at random.
Please answer using one outcome listed in true (active), false (inactive)

Solved entries:
> print(dat)
                                   molecule  category.label
1                 O=C(/C=C/c1ccccc1)c1ccoc1            true
2  O=[N+]([O-])c1ccc2c(c1)Nc1nc3ccccc3nc1N2           false
3  C=CCN1C(=O)c2ccc(C(=O)N3CCC(C(=O)OCC)CC3)cc2C1=O           false
4  CC(C)[C@H](NC(=O)OCc1ccccc1)C(=O)OCc1ccccc1           false

Name the outcome recorded for Cc1cc(C)n2nc(C(=O)NN=Cc3cccc(Cl)c3)nc2n1 in the assay. false

Name the outcome recorded for COC1(C2=NCCN2)COc2ccccc2O1 (centres undefined) in the assay. true

Name the outcome recorded for CC1CCCN(C(=O)c2ccc3c(c2)C(=O)N(CCC2=CCCCC2)C3=O)C1 (centres undefined) in the assay. true

Name the outcome recorded for CCN(CC)CCCC(C)n1c2nc(=O)[nH]c(=O)c-2nc2cc(Cl)ccc21 (centres undefined) in the assay. true

Name the outcome recorded for COc1cc(NC(=O)COC(=O)c2ccc([N+](=O)[O-])s2)cc(OC)c1OC in the assay. true
